Taken from PubChem BioAssay AID1508600.

procedureText: Components of the Cytosolic LPS Sensing Pathway: Gene Identification via Genome-wide siRNA Screen;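 further: robust z of the log signal after scaling to non-targeting control siRNA wells of the plate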
appliedConditions: RAW264.7 macrophages, IL-1a HTRF, actives lie on both sides, screened at 100 nM (by protocol), cells primed 5 h with Pam3CSK4 first
Out of some 53,000 sequences screened, about 3,700 (7%) were called active. This excerpt belongs to a sample that is enriched for actives.
Doc: threshold 0.6 (exclusive). Items with z-score beneath it return y; others return n.

recordsequence="GUUUGAUGAUCACUGGGUCTT against Aqp2" group=n
recordsequence="GGUAAGCUAGGUUGCCCACTT against Gabarapl1" group=n

## Input Does this sequence meet the criterion z-score < 0.6? GGAAUUUUCUACAUGUGUGTT against Lim2
## Output y

## Input Quick check: z-score of GGAUGAGAGAAAGUUACCCTT against Tspo2 under 0.6?
## Output y

## Input Hello, is z-score of the following sequence strictly smaller than 0.6? GGCGGGUUUGCUGAAUAACTT against Lrrc26
## Output n

----------
procedureText: Components of the Cytosolic LPS Sensing Pathway: Gene Identification via Genome-wide siRNA Screen;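 further: robust z of the log signal after scaling to non-targeting control siRNA wells of the plate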
appliedConditions: RAW264.7 macrophages, IL-1a HTRF, actives lie on both sides, screened at 100 nM (by protocol), cells primed 5 h with Pam3CSK4 first
Among all 53,000 sequences or so, about 3,700 (7%) were called active. The full list was thinned out, with actives kept by preference.
quantityKind: z-score
Answers are plain numbers.

Known results for sequences:
recordsequence="GCACAGACAUCUUUUGCCATT against Man2a2" observedresult=-1
recordsequence="GCAUAUCGCUUUUGUGAGCTT against E2f6" observedresult=2.31
recordsequence="CCAAUUUUCAAGAUCGGUCTT against Pakap" observedresult=0.347
recordsequence="CGUGGACUAAAAGUUUUCATT against Mmp12" observedresult=3.63
recordsequence="GGCCUUUGAGAAGAACAUUTT against Copz1" observedresult=-2.16
recordsequence="GCUUAUGAUUCCAAGGCAGTT against Serpina6" observedresult=0.9

List reported z-score for each of these sequences:
1. GGAAAUCGAAUGAAUAACCTT against Klf12
2. GGAAGAAGACAUGCUCACUTT against Pcdhb8
3. GGUUCAGACCAUCUUGGAATT against Bag3
4. GGUCCACUUGCCAUCUAUUTT against Zfp54

## Output
[3.45, 1.07, -0.936, -1.09]

----------
procedureText: Components of the Cytosolic LPS Sensing Pathway: Gene Identification via Genome-wide siRNA Screen;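 further: robust z of the log signal after scaling to non-targeting control siRNA wells of the plate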
appliedConditions: RAW264.7 macrophages, IL-1a HTRF, actives lie on both sides, screened at 100 nM (by protocol), cells primed 5 h with Pam3CSK4 first
Among all 53,000 sequences or so, about 3,700 (7%) were called active. This excerpt belongs to a sample that is enriched for actives.
quantityKind: z-score
Answers are plain numbers.

recordsequence="CCCUCAAUGGCCUCAAACUTT against Elavl3" quantitykind=z-score observedresult=-1.29
recordsequence="GGGUGUGAAGUCAUGGUAUTT against Trmt9b" quantitykind=z-score observedresult=0.503
recordsequence="GGGAUGUAUUAGUGAAAGGTT against Dmpk" quantitykind=z-score observedresult=0.368

## Input // fetch z-score given entry GGUUUUAAAGCAUCUUCGUTT against Pard6g
## Output -0.284

----------
procedureText: Components of the Cytosolic LPS Sensing Pathway: Gene Identification via Genome-wide siRNA Screen;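 further: robust z of the log signal after scaling to non-targeting control siRNA wells of the plate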
appliedConditions: RAW264.7 macrophages, IL-1a HTRF, actives lie on both sides, screened at 100 nM (by protocol), cells primed 5 h with Pam3CSK4 first
Screen size: about 53,000 sequences; about 3,700 (7%) were called active. This excerpt belongs to a sample that is enriched for actives.
quantityKind: z-score
Numbers only.

# annotated cases, reported z-score shown
recordsequence="CCAGCUAAAAAGAUGGUAGTT against Rreb1" observedresult=0.319
recordsequence="CCCUCAAUCUAACAGUGCATT against Dsg1b" observedresult=0.75
recordsequence="GGUAGAAACUGACCACAUATT against Aifm1" observedresult=0.917

## Input State its z-score: GGCAUGACUUCCACAUGAATT against Pdcd1
## Output 0.672
